# Subject Of Test: ThHSF1 full-length;ThHspA1 full-length (Trametes hirsuta AH28-2;Trametes hirsuta AH28-2)
# Protocol Notes: FP
# Setup Conditions: ThHspA1 added, 5x binding buffer pH 6.8 (25 mM HEPES, 5 mM MgCl2, 150 mM KCl, 1 mM DTT, 5% glycerol), EMSA 100 nM probe, 16 C 30 min, then 37 C 30 min, 6% native PAGE
Readout Name: Kd (µM)
Record the value in µM, omitting the unit from your answer.

(Q) // Kd lookup, key: TACGCCTTGAACTGACTTACATGCAA (double strand) [lacA promoter probe WT (26 bp)]
(A) 0.673

====

# Tested on: ThHSF1 DBD (Trametes hirsuta AH28-2)
# Protocol Notes: FP
# Setup Conditions: 5x binding buffer pH 6.8 (25 mM HEPES, 5 mM MgCl2, 150 mM KCl, 1 mM DTT, 5% glycerol), EMSA 100 nM probe, 16 C 30 min, then 37 C 30 min, 6% native PAGE
Readout Name: log10 Kd (log10 of the value in µM)
Units before log transform: µM; reported quantity: Kd; transform: log10.

(Q) Fill in: log10 Kd of TACGCCTTGAACTGACTTACATGCAA (double strand) [lacA promoter probe WT (26 bp)] is ___
(A) -0.02

(Q) For TTCGAACGCACCGAAACCATCCCGAACTTGGTCGAA (double strand) [lacF promoter probe] , what is its reported log10 Kd?
(A) 0.68

(Q) Which value of log10 Kd has been reported for TACGCCTAGAACTGACTTACATGCAA (double strand) [lacA mutant probe 4] in the records?
(A) 0.72

(Q) Could you share which log10 Kd value was measured for TACGCCTTATACTGACTTACATGCAA (double strand) [lacA mutant probe 2] ?
(A) 1.17

(Q) What log10 Kd value was documented for this sequence, TACGCCTTAAACTGACTTACATGCAA (double strand) [lacA mutant probe 1] ?
(A) 0.66

(Q) What does the record list as log10 Kd for TACGCCAAGAACTGACTTACATGCAA (double strand) [lacA mutant probe 5] ?
(A) 1.07

(Q) Which log10 Kd reading was recorded for the sequence AGTTCAGTATGTCTTGAAGATTATGCGGTCAGAAAC (double strand) [lacB promoter probe] ?
(A) 0.74

====

# System: ThHSF1 full-length (Trametes hirsuta AH28-2)
# Protocol Notes: FP
# Setup Conditions: without ThHspA1, 5x binding buffer pH 6.8 (25 mM HEPES, 5 mM MgCl2, 150 mM KCl, 1 mM DTT, 5% glycerol), EMSA 100 nM probe, 16 C 30 min, then 37 C 30 min, 6% native PAGE
Readout Name: pKd
Just the number, please; pKd means minus log10 of the concentration in mol/L.

(Q) Which pKd is listed for TACGCCTTGAACTGACTTACATGCAA (double strand) [lacA promoter probe WT (26 bp)] ?
(A) 5.99

These measurements were taken from paper PMC12772356.
